# study-target: Major prion protein (Homo sapiens)
# protocol-notes: confirmation of inhibitors of cell surface human prion protein, confirmation, cell-based, TR-FRET (AID 743200)
# condition-summary: cell surface PrPC level, at 13.8 µM, hits give high values
Out of some 1,500 compounds screened, about 950 (63%) were called active. The set was probably picked from earlier hits. These entries were drawn from the full list.
Listing of recorded inhibition by entry.
parameter-measured: inhibition (%)

structure: COc1ccc2c(Cl)c(-c3nnco3)sc2c1
units-label: %
number: 37.6
//
structure: CC(=O)c1sc2nc(SCC(=O)N3CCCCC3)[nH]c(=O)c2c1C
units-label: %
number: 28.8
//
structure: COC(=O)Cc1[nH]n(-c2nc3ccccc3s2)c(=O)c1C(C)=Nc1ccc(OC)cc1
units-label: %
number: 5.13
//
structure: Cc1nc(/N=C(\N)NC(=O)NC2CCCCC2)nc2ccccc12
units-label: %
number: 29.3
//
structure: CO[C@H]([C@H](C)/C=C/N(C)C=O)[C@@H](C)C(=O)CC[C@H](C)[C@H](O)[C@H](C)[C@H]1OC(=O)/C=C/C(C)=C/[C@H](O)[C@H](OC)C[C@@H]2C=CC[C@@H](C[C@H](OC)[C@@]3(CO3)[C@@H](OC)C[C@@H](OC)[C@@H]1C)O2
units-label: %
number: 32.5
//
structure: CCCc1nc(SCC(=O)Nc2ccc(S(=O)(=O)N(C)C)cc2)c2ccccc2n1
units-label: %
number: 90.7
//
structure: COc1ccc(C(=O)Nc2nc(-c3ccc(S(=O)(=O)N4CCOCC4)cc3)cs2)cc1
units-label: %
number: 27.4
//
structure: Cc1cc2cc(CNC(=O)c3ccc(S(=O)(=O)N4CCOCC4)cc3)ccc2[nH]1
units-label: %
number: 15.2

###

# study-target: Major prion protein (Homo sapiens)
# protocol-notes: confirmation of inhibitors of cell surface human prion protein, confirmation, cell-based, TR-FRET (AID 743200)
# condition-summary: cell surface PrPC level, at 13.8 µM, hits give high values
The whole screen tested about 1,500 compounds, of which about 950 (63%) were called active. So high a share suggests a set chosen from earlier hits. The list is a sample of the results.
parameter-measured: inhibition (%)

compound: Cc1ccnc(NC(=O)C2CCN(S(=O)(=O)c3c(C)c(C)cc(C)c3C)CC2)c1
units-label: %
number: 20.7

compound: Cc1ccc(CNC(=O)Nc2nnc([C@H]3C[C@H](O)[C@@H](CO)O3)s2)cc1
units-label: %
number: -0.76

compound: O=C1CCCC2=C1C(c1cccs1)n1nc(SCc3ccccc3)nc1N2 (stereo not drawn)
units-label: %
number: 20

###

# study-target: Major prion protein (Homo sapiens)
# protocol-notes: confirmation of inhibitors of cell surface human prion protein, confirmation, cell-based, TR-FRET (AID 743200)
# condition-summary: cell surface PrPC level, at 13.8 µM, hits give high values
About 950 (63%) of roughly 1,500 compounds were called active. The set was probably picked from earlier hits. The list is a sample of the results.
Assign YES to entries whose inhibition meets or exceeds 50%; assign NO to the rest.

molecule: O=C(/C=C/c1ccc([N+](=O)[O-])o1)NNC(=O)c1ccc(F)cc1
class-label: YES

molecule: O=C(c1ccc(F)cc1)c1cn(Cc2ccc(F)cc2)c2cc3c(cc2c1=O)OCCO3
class-label: YES

molecule: Cc1cccc(NC(=O)c2nc(S(=O)(=O)Cc3ccccc3)ncc2Cl)c1
class-label: NO

molecule: CCCCC(=O)NC(c1ccc(OC)c(OC)c1)c1ccc2cccnc2c1O (configuration not stated)
class-label: NO

molecule: CCCCCCCCCCCCn1ccc(=N)cc1
class-label: NO

molecule: NC(=O)C1CCN(Cc2nc3c(Br)cc(Br)cc3c(=O)[nH]2)CC1
class-label: NO

molecule: Cc1cccc(CS(=O)(=O)c2ncc(Cl)c(C(=O)Nc3ccc(F)cc3)n2)c1
class-label: NO

molecule: Cc1ccsc1C(=O)OCC(=O)Nc1cccc(F)c1
class-label: NO

molecule: COc1ccc(S(=O)(=O)N2CCOCC2)cc1NC(=O)CSc1ncnc2ccccc12
class-label: YES

molecule: COC(=O)CSc1nc(C2CC2)nc2ccccc12
class-label: NO

molecule: CCCCNc1c(-c2cccc(Sc3ccc(OC)cc3)c2)nc2ccccn12
class-label: NO

molecule: CN(C)CCNC(=O)c1ccc(Cl)c2cc3ccccc3nc12
class-label: NO

molecule: O=C(CC(O)(C(F)(F)F)C(F)(F)F)Nc1ccc(Cl)c(Cl)c1
class-label: YES

molecule: CC1(C)Cc2ccccc2-c2[nH]c(=S)[nH]c(=O)c21
class-label: YES

molecule: N#Cc1c(-c2cccs2)nc(SCC(=O)c2ccc(Br)cc2)[nH]c1=O
class-label: YES

molecule: CCc1c(C)nc2cc(-c3cccs3)[nH]n2c1=O
class-label: NO

molecule: O=C(NC(Nc1nc2ccc([N+](=O)[O-])cc2s1)(C(F)(F)F)C(F)(F)F)c1ccccc1
class-label: YES

molecule: CC(=O)Nc1cccc(OCC(=O)/C=C2\N(C)c3ccccc3C2(C)C)c1
class-label: NO

molecule: COc1cccc2sc3cc(NCC[C@@H]4CCCN4C)ccc3c(=O)c12
class-label: NO

molecule: CCOC(=O)c1c(C)[nH]c(=S)c(C#N)c1-c1ccccc1
class-label: NO

molecule: Cc1sc2ncnc(SCC(=O)Nc3ccc(CN4CCCC4)cc3)c2c1C
class-label: YES

Values from PubChem BioAssay AID743200
